# target: Ubiquitin carboxyl-terminal hydrolase 2 (Homo sapiens)
# assay-notes: qHTS Validation Assay for Inhibitors of Ubiquitin-specific Protease USP2a Using CHOP2 as the Reporter (AID 463106)
# experimental-parameters: USP2a cleavage of CHOP2 reporter, enzymatic; series mostly up to 38.3 µM
Records with an inconclusive call do not appear. Activity calls are given as the source filed them. The call rests on the fitted dose curve; in most records, active means well fitted inhibition curve with a large enough effect; inconclusive means small, poorly fitted or top-dose-only effect, or effect the other way; inactive means flat fitted curve, though single readings scatter.
quantity-measured: outcome

// below: answered compounds
- smiles-structure: "Nc1cc(Cl)c(NC2=NCCN2)c(Cl)c1"
  observed-measurement: "inactive"
- smiles-structure: "O=C1CCC(c2ccc(-n3ccnc3)cc2)=NN1"
  observed-measurement: "inactive"
- smiles-structure: "N[C@H](CO)C(=O)O"
  observed-measurement: "inactive"
- smiles-structure: "N[C@@H](Cc1cnc[nH]1)C(=O)O"
  observed-measurement: "inactive"

Could you now consider this next compound?
Consider the compound CC(C)C[C@H]1C(=O)N2CCC[C@H]2[C@]2(O)O[C@](NC(=O)[C@@H]3C=C4c5cccc6[nH]c(Br)c(c56)C[C@H]4N(C)C3)(C(C)C)C(=O)N12 and give its measured outcome.
inactive

# credit: PubChem BioAssay (NCATS)
